Known kon of a selection of binders
Molecular target: T1, IL-18Rα/β heterodimer (Fc fused human IL-18Rα mixed with Fc fused human IL-18Rβ) (human, UniProt Q13478 19-329; O95256 20-356, limits assumed)
T1 construct: Alpha and beta Fc fusions were mixed and pre-incubated for 30 min before capture on anti-human IgG; also called alpha/beta heterodimer IL-18 receptor; heterodimeric human IL-18 receptor alpha (CD218a) and IL-18R accessory protein (IL-18RAP/CDw218b); not shown: Fc
T1 sequence (looked up) 1: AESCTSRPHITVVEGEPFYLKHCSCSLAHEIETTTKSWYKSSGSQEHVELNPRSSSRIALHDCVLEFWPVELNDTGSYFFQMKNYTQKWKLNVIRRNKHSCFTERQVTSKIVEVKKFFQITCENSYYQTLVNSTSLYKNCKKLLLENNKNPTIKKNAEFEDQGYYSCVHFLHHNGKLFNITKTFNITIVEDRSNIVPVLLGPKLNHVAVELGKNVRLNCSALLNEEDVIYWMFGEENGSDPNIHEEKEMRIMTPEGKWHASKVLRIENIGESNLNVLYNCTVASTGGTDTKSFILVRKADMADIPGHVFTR
T1 sequence (looked up) 2: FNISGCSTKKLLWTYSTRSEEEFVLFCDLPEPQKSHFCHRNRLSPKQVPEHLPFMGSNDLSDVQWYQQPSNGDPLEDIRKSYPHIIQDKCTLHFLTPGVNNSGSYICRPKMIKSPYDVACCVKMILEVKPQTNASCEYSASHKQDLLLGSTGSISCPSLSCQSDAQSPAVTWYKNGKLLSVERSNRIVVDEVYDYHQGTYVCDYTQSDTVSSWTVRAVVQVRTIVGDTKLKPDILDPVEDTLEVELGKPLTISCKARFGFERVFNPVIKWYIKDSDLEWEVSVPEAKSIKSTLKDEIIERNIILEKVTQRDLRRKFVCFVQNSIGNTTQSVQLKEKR
Experiment: SPR, Fc-IL-18Rα/β captured, heterogeneous ligand fit
Readout: kon (M⁻¹ s⁻¹)

| Binder | Readout | Unit Tag | Recorded Number |
| --- | --- | --- | --- |
| IL-18 variant SEQ ID NO: 61 with 30 kDa PEG (E6K, C38A, K53A, C76A, C68-30kPEG) (ligand, 30 kDa PEG on Cys 68 (C68-30kPEG), also called 61 + PEG) YFGKLKSKLSVIRNLNDQVLFIDQGNRPLFEDMTDSDARDNAPRTIFIISMYADSQPRGMAVTISVKCEKISTLSAENKIISFKEMNPPDNIKDTKSDIIFFQRSVPGHDNKMQFESSSYEGYFLACEKERDLFKLILKKEDELGDRSIMFTVQNED | kon | M⁻¹ s⁻¹ | 38100 |
| IL-18 variant SEQ ID NO: 30 with 30 kDa PEG (E6K, V11I, C38A, K53A, T63A, C76A, C127A, C68-30kPEG) (ligand, 30 kDa PEG on Cys 68 (C68-30kPEG), also called 30 + PEG30; 30 + PEG) YFGKLKSKLSIIRNLNDQVLFIDQGNRPLFEDMTDSDARDNAPRTIFIISMYADSQPRGMAVAISVKCEKISTLSAENKIISFKEMNPPDNIKDTKSDIIFFQRSVPGHDNKMQFESSSYEGYFLAAEKERDLFKLILKKEDELGDRSIMFTVQNED | kon | M⁻¹ s⁻¹ | 39400 |
| IL-18 variant SEQ ID NO: 30 with 10 kDa PEG (E6K, V11I, C38A, K53A, T63A, C76A, C127A, C68-10kPEG) (ligand, 10 kDa PEG on Cys 68 (C68-10kPEG), also called 30 + PEG10) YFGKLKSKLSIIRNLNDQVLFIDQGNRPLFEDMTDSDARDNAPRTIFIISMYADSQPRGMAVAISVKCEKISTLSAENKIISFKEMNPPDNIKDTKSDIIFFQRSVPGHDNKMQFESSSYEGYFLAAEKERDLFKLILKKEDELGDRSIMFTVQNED | kon | M⁻¹ s⁻¹ | 120000 |
| IL-18 variant SEQ ID NO: 30 with 5 kDa PEG (E6K, V11I, C38A, K53A, T63A, C76A, C127A, C68-5kPEG) (ligand, 5 kDa PEG on Cys 68 (C68-5kPEG), also called 30 + PEG5) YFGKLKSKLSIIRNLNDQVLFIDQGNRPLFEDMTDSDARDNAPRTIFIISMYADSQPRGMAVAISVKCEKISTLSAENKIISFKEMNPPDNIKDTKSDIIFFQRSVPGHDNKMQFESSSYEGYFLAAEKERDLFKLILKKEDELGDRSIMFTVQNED | kon | M⁻¹ s⁻¹ | 269000 |

Taken from patent US20250186594A1.
